# measured.on: UniProt P08588
# Sequence (P08588 whole entry): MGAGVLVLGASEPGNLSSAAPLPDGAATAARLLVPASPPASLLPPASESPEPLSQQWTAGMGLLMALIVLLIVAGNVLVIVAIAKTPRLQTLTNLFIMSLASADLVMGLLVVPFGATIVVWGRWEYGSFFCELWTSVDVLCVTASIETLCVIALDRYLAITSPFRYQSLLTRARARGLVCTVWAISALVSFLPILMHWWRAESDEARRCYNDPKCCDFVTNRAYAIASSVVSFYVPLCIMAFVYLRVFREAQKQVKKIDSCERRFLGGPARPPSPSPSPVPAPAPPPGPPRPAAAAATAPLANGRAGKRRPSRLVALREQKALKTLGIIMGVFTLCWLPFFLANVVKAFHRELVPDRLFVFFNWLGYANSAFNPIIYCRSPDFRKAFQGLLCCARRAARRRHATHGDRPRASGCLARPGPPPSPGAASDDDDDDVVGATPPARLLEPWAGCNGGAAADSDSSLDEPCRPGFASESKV
Mark class 1 only when IC50 stays strictly below 2 µM. Values equal to the cut-off are class 0.

Example results:
CCCCCCCCNC(=O)N1CCc2cc(S(=O)(=O)Nc3ccccc3)ccc21 ... class 1
CCCCCCN(C)C(=O)N1CCc2cc(S(=O)(=O)Nc3ccccc3)ccc21 ... class 0
CCCCCCCCc1csc(Nc2ccc(S(=O)(=O)Nc3ccccc3)cc2)n1 ... class 1
CCCCCCc1csc(N2CCc3cc(S(=O)(=O)Nc4ccccc4)ccc32)n1 ... class 1
CCCCCCCCc1nc(N2CCc3cc(S(=O)(=O)Nc4ccccc4)ccc32)no1 ... class 1
O=S(=O)(Nc1ccccc1)c1ccc2c(c1)CCN2c1cccc(CCCC2CCCC2)n1 ... class 0
CCCCCCCCc1ccnc(N2CCc3cc(S(=O)(=O)Nc4ccccc4)ccc32)n1 ... class 1
CCCCCCCCc1csc(N2CCc3cc(S(=O)(=O)Nc4ccccc4)ccc32)n1 ... class 0

With those in mind, consider the next compound.
## Input In plain terms, does CNC(=O)N1CCc2cc(S(=O)(=O)Nc3ccccc3)ccc21 come in under 2 µM for IC50?
## Output class 0
